Data origin, for the record: PubChem BioAssay AID504779

- Tested on: Caco-2 bidirectional permeability, LC-MS/MS efflux ratio
- method description: Enhancers of SMN2 Splice Variant Expression: Efflux Ratio Profiling
- run conditions: stronger effect = lower value
measurement type: efflux ratio
One number for each entry.

Exercise: State, in one line, measured efflux ratio of "O=C(O)C1CCN(c2nc(-c3ccc(Br)cc3)cs2)CC1"
Key: 0.4
